Reference for the values: paper PMC12616683

Assay: FBMN analysis of short peptides in small intestine contents and serum after oral DHG
Details: small intestine contents, 60 min after oral DHG, C57 mice; FBMN feature intensity, peptides smaller than 690 Da
Square brackets hold non-standard residues; d marks the D form. Peptide text beside a SMILES is read from it. pGlu = O=C1CC[CH](C(=O)O)N1
metric: Peptide signal (feature intensity) in the small intestine, 60 min

Example cases with answers are listed next.
compound	meas value
O=C1CCC(C(=O)NC(Cc2ccccc2)C(=O)O)N1 (stereo not shown) [PyroGlu-Phe]	1.13E+07
CCC(C)C(NC(=O)C1CCC(=O)N1)C(=O)O (stereo not shown) [PyroGlu-Ile] ([pGlu]-Ile-OH; configuration not given here)	1.17E+06
NC(Cc1ccccc1)C(=O)N1CCCC1C(=O)O (stereo not drawn) [Phe-Pro] (H-Phe-Pro-OH; configuration not given here)	7.11E+05

Kindly consider the entry below.
Please report the recorded Peptide signal (feature intensity) in the small intestine, 60 min for CC(C)C[C@H](NC(=O)CNC(=O)[C@@H](N)CC(C)C)C(=O)O [Leu-Gly-Leu] (H-Leu-Gly-Leu-OH) .
6.61E+05
